Each recorded value in this set is attributed to patent US20220025023A1.

- measurement_target: T1, TP-29 (also: biotinylated, site not given here)
- T1 construct: also called TP-29 peptide
- T1 peptide: ISVHISNAEPKHNSN
- experiment: indirect ELISA, biotinylated 15-mer on streptavidin plate, hybridoma supernatant
Where no end group is shown, it is not given here.
readout_name: binding result

>>> test_result("ACI-7062-406E3-Ab2 (antibody, IgG2a, V domains shown, also called 406E3G10; clone 6) VH: QVTLKESGPAILQPSQTLSLTCSFSGFSLTTYGIGVGWIRQPSGKGLEWLAHIWWNDNKYYNTALKSRLTVSKDTSNNQVFLKIASVDTADTATYYCARVYGNLYYFAYWGQGTTLTVSS VL: DVLMTQTPLSLPVSLGDRASISCRSSQSIVHRSGNTYLEWYLQKPGQSPKLLIYKVSNRFSGVPDRFSGSGSGTDFTLKISRVEAEDLGVYYCFQGSHVPTFGAGTKLELKR")
"no binding"
>>> test_result("ACI-7062-401A2-Ab2 (antibody, IgG1, V domains shown, also called 401A2C6; clone 2) VH: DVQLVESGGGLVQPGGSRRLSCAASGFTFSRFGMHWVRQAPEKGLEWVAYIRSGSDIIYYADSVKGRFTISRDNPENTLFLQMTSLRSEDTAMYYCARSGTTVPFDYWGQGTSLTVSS VL: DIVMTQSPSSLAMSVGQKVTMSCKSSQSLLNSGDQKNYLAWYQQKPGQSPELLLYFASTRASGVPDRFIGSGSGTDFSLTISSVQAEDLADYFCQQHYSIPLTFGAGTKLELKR")
"no binding"
